Tested on: MS2 coat protein
Assay: apparent KD of MS2 coat protein; designed switch direction (-1 OFF switch, 1 ON switch): -1; higher = weaker reporter binding
Details: input ligand: FMN 200 uM

>  <recordSequence>
GCAGCAUAGAUUACUAGCUGUUACAUGAGGAUCACCCAUGUUCAGGAUAUGGUCUGGAUUACAGGCCAGAAGGGAACAAGCUGC [finally!] (Eterna round: R96, puzzle: Exclusion NG 3)

>  <apparent KD of MS2 coat protein [nM]>
14.2

$$$$
>  <recordSequence>
UACAUGAGGAUCACCCAUGUUUUGUCGUGUAUGGUACCCAUCUAGGAUAUCGUGUUAUUUAACCACGAGAAGGAGAGUAUCAAU [MOD4 Solution 21 by JMF] (Eterna round: R96, puzzle: Exclusion NG 3)

>  <apparent KD of MS2 coat protein [nM]>
22.4

$$$$
>  <recordSequence>
ACAUGAGGAUCACCCAUGUACAGGGUUUAGUUUCAUCGUUUGAAGGAUAUACUCCGUUAGUUGUCGUAGAAGGUCACAGUUUGG [JR_ExcNG3_Sub007] (Eterna round: R96, puzzle: Exclusion NG 3)

>  <apparent KD of MS2 coat protein [nM]>
179

$$$$
>  <recordSequence>
AGUCGUAGACAGGAUAUGCGGCUAAUAAAUAAAGCAGAAGGGUCUACUUGAGGAUCACCCAAGUGGGCGGUUAA [jl-ex6-4.19 ViennaUCT mod] (Eterna round: R97, puzzle: Exclusion 6)

>  <apparent KD of MS2 coat protein [nM]>
104

$$$$
>  <recordSequence>
GGCCCAUGAGGAUAUCAGUCUGGAUCAGACAAGAUCCUGACUGAGAAGGCACAUGAGGAUCACCCAUGUAGGCC [Mat - Exclusion 4 - Eli Mod - D53] (Eterna round: R97, puzzle: Exclusion 4)

>  <apparent KD of MS2 coat protein [nM]>
18.3

$$$$
>  <recordSequence>
UUUUAGUAAGGAUAUGGUUAGAUCUACUUCGGUAGAUCUAACCAGAAGGUACAUGAGGAUCACCCAUGUAGAUA [Mod of Brourd 19 - Jieux - Exclusion 4] (Eterna round: R97, puzzle: Exclusion 4)

>  <apparent KD of MS2 coat protein [nM]>
25.2

$$$$
>  <recordSequence>
UGUUGUUGCGUAGGAUAUUGCCAACAGGCAGUAGGAUAUGCGAAAGCAGAAGGACCGCCAACAGGCGAGAAGGACGGGACAACU [pwkr exNG2 2xF7 2xFMN.13] (Eterna round: R96, puzzle: Exclusion NG 2)

>  <apparent KD of MS2 coat protein [nM]>
177

$$$$
>  <recordSequence>
GAAAAGUGAGGAUAUGCUCGAUCCUGGCACCAAGUGAAGUCACUUGAGGAUCACCCAAGUAGAAGGCACAUAAA [Tiederes] (Eterna round: R97, puzzle: Exclusion 2)

>  <apparent KD of MS2 coat protein [nM]>
206

$$$$
>  <recordSequence>
UUUACAAGCUAAAGAUCCCACAUGAGGAUCACCCAUGUUCCUGGCCGUGAGGCUAGGUAAACUUUUGCUCGUCUUAU [JL TOV1 3.67] (Eterna round: R97, puzzle: Sensor, turn-off variant 1)

>  <apparent KD of MS2 coat protein [nM]>
252

$$$$
>  <recordSequence>
AAGUCGACGGUGAGGAUAUUAGUUGAACGACAGAUUAAGAAGGUACAUGAGGAUCACCCAUGUGGGUAGCGUUG [Brourd's EX4 #78] (Eterna round: R97, puzzle: Brourd's mod of Exclusion 4)

>  <apparent KD of MS2 coat protein [nM]>
73.2

$$$$
>  <recordSequence>
UUUUAAAAGCUGAGAUCCUACAUGAGGAUCACCCAUGUGGUCCGGAAAAUUUUGUCACCGGAUUUUGCUCGUCUUGU [salish99_S_TOV1_R5_103] (Eterna round: R97, puzzle: Sensor, turn-off variant 1)

>  <apparent KD of MS2 coat protein [nM]>
102

$$$$
>  <recordSequence>
UAACUGUGAGGAUAUUCGUAGUACACGGAGACGUGUAUUACGGAGAAGGCACAUGAGGAUCACCCAUGUUCCUU [Default title] (Eterna round: R97, puzzle: Exclusion 4)

>  <apparent KD of MS2 coat protein [nM]>
75.6

$$$$
>  <recordSequence>
ACACUGCGAGGAUAUACAUGAGGAUCACCCAUGUGUCGGCAGCCACGGUAGCACUAGUGUAGAAGGCGCAUUAG [EX3 #42] (Eterna round: R97, puzzle: Exclusion 3)

>  <apparent KD of MS2 coat protein [nM]>
41.1

$$$$
>  <recordSequence>
UUUUUACAUGAGGAUCACCCAUGUCAGGAUAUCAUUAUAUUUUAUUAUUUUAUUUAUAUGAGAAGGGACUAUUA [My solution] (Eterna round: R96, puzzle: Exclusion 1)

>  <apparent KD of MS2 coat protein [nM]>
127

$$$$
>  <recordSequence>
ACUCUUCUAGUUAGGAUAUGCAUCGGGCUUCCGCAGCAGAAGGAACAUGAGGAUCACCCAUGUCAAAUAAAAUC (Eterna round: R97, puzzle: Brourd's mod of Exclusion 4)

>  <apparent KD of MS2 coat protein [nM]>
34.8

$$$$
>  <recordSequence>
AGCUGUGGCCAAGGAUAUCUAGCCUUAAAUACCGACGUAUAGUCGGACAUGAGGAUCACCCAUGUGGAGAAGGUGGUCUCAGCA [Eli eng2 - 044] (Eterna round: R96, puzzle: Exclusion NG 2)

>  <apparent KD of MS2 coat protein [nM]>
82

$$$$
>  <recordSequence>
GAGCUGUGAGGAUAUACAUGAGGAUCACCCAUGUUAAGGAAGUCGGGAUUAAUUUGGUGUAGAAGGCGCUUAUU [JR_Ex3_Sub020] (Eterna round: R97, puzzle: Exclusion 3)

>  <apparent KD of MS2 coat protein [nM]>
44

$$$$
>  <recordSequence>
UGUUGUCGCGUAGGAUAUGCAUGAGGAUCACCCAUGCAAUUAGAGUUAACAUGAGGAUCACCCAUGUAGAAGGGCGGGACAACU [pwkr exNG2 2xF5 1xFMN.7] (Eterna round: R96, puzzle: Exclusion NG 2)

>  <apparent KD of MS2 coat protein [nM]>
62.8

$$$$

* * *

System: MS2 coat protein
Experiment: apparent KD of MS2 coat protein, switch OFF state (with FMN for OFF switches, without FMN for ON switches); designed switch direction (-1 OFF switch, 1 ON switch): 1; higher = weaker reporter binding
Conditions: FMN input: 0 or 200 uM; Eterna round: R93 (includes R88 designs)
Here the recorded apparent KD of MS2 coat protein is given for each entry.
readoutType: apparent KD of MS2 coat protein

>  <recordSequence>
AAGUCACAUGAGGAUCACCCAUGUCGUAAACGAUGAGGAUAUAGGAAGAAAAAAAAAAAACUAGAAGGUAUUACAA [SameState1-02]

>  <readoutType>
apparent KD of MS2 coat protein

>  <result>
28.6 nM

$$$$
>  <recordSequence>
AGGAAACAUGAGGAUCACCCAUGUAAAAAUAACGCAGGAUAUGGAAACACGAAAGUGAAACCAGAAGGGUGAAAAG [77%, Mat - Mod of Eli, 14]

>  <readoutType>
apparent KD of MS2 coat protein

>  <result>
29.8 nM

$$$$
>  <recordSequence>
AACCAACAUGAGGAUCACCCAUGUCUACAGGAUUAAGGAUAUGGGCAGGGCUUCCCUGCACUAGAAGGUGAUCCAA [Enonenen]

>  <readoutType>
apparent KD of MS2 coat protein

>  <result>
52.3 nM

$$$$

* * *

Test system: MS2 coat protein
Assay: apparent KD of MS2 coat protein; designed switch direction (-1 OFF switch, 1 ON switch): -1; higher = weaker reporter binding
Conditions: input ligand: microRNA oligo, concentration not stated
readoutType: apparent KD of MS2 coat protein (nM)

>  <recordSequence>
ACAUGAGGAUCACCCAUGUCUGGCUGGUCUGCUCCGGUUGUUGAGGAUAUAGUUCGGUGUUCGCGCUAGAAGGUGAGGGCUGGC [Aenatbe mod 38] (Eterna round: R96, puzzle: Exclusion NG 3)

>  <quantitativeReadout>
32.1

$$$$
>  <recordSequence>
UUCGUGCAGCUUUGCUGUACGCGUACAUGAGGAUCACCCAUGUAGGAUAUGGUACGCUUUGCGUGCUAGAAGGAUAUGGAGAGG [JL EXNG3 1.34] (Eterna round: R96, puzzle: Exclusion NG 3)

>  <quantitativeReadout>
28.7

$$$$
>  <recordSequence>
AAUGCGGACAAAGGAUAUUGCGGUGACCGGCUCGGCGUACCGAGCCUACAUGAGGAUCACCCAUGUAAGAAGGUUGUCGCUAAA [Mat - Exclusion NG 2 - Mod of JL - D74] (Eterna round: R96, puzzle: Exclusion NG 2)

>  <quantitativeReadout>
13.8

$$$$
>  <recordSequence>
UUUCCCUGGCAAGGAUAUCCUGUGCGGUUCCGGCUCGUGUCUGUUACAUGAGGAUCACCCAUGUGGGAGAAGGUGCCUGUGGCU [Design 91] (Eterna round: R96, puzzle: Exclusion NG 2)

>  <quantitativeReadout>
47.4

$$$$
>  <recordSequence>
AAAAAGCUGAGAGGAUAUGGUGCCGAAACGGUGCUAGAAGGCUUUGCAAAAAAACAUGAGGAUCACCCAUGUUCAUGUAGAGAA [AK ExNG1-1.2] (Eterna round: R96, puzzle: Exclusion NG 1)

>  <quantitativeReadout>
11.8

$$$$
